Data credit: patent US9708311B2

Target: human EP4 receptor (Homo sapiens (Human))
Test: Test for antagonism of the human EP4 receptor signal (cAMP HTRF)
Type: cell-based
Conditions: cells expressing hEP4, PGE2 at EC80 (0.4 nM), cAMP TR-FRET; read-out: Antagonism hEP4 IC50
Listing of entries alongside the reported IC50.
The figure you give is taken to be in nM; do not add the unit.

Examples with answers:
molecule	IC50, nM
CCn1c2ccccc2c2cc(-c3nc4cc(C(=O)NS(=O)(=O)Cc5ccc(F)cc5)ccc4n3CCOC)ccc21 [Example 58]	174
CCn1c2ccccc2c2cc(-c3nc4cc(S(N)(=O)=O)ccc4n3CCOC)ccc21 [Example 127]	305

Ask: Name the recorded IC50 for CCn1c2ccccc2c2cc(-c3nc4cc(C(=O)OC)ccc4n3CCOC)ccc21 [Example 3] .
Reply: 175

----------
Biological target: human EP4 receptor (Homo sapiens (Human))
Test: Test for antagonism of the human EP4 receptor signal (cAMP HTRF)
Type: cell-based
Details: cells expressing hEP4, PGE2 at EC80 (0.4 nM), cAMP TR-FRET; read-out: Antagonism hEP4 IC50
Listing of entries alongside the reported pIC50.
In simple prose, pIC50 is minus the logarithm base ten of a concentration in moles per litre.

1) CCn1c2ccccc2c2nc(-c3nc4cc(C(=O)O)ccc4n3CCOC)ccc21 6.62
2) CCn1c2ccccc2c2cc(-c3nc4cc(C(=O)O)ccc4n3CCN3CCCC3)ccc21 6.13
3) CCn1c2ccccc2c2cc(-c3nc4cc(C(=O)N(C)S(C)(=O)=O)ccc4n3CCOC)ccc21 6.84

Ask: Find the measured pIC50: item `CCn1c2ccccc2c2cc(-c3nc4cc(C(=O)N5CCOCC5)ccc4n3CC3CC3)ccc21` , target or system human EP4 receptor (Homo sapiens (Human)).
Reply: 6.66

Ask: Find the measured pIC50: item `CCn1c2ccc(-c3nc4cc(C(=O)O)ccc4n3CCOC)cc2c2c(F)cccc21` , target or system human EP4 receptor (Homo sapiens (Human)).
Reply: 8.20

Ask: Find the measured pIC50: item `CCn1c2ccccc2c2cc(-c3nc4cc(C(=O)N5CCNC(=O)C5)ccc4n3CC3CC3)ccc21` , target or system human EP4 receptor (Homo sapiens (Human)).
Reply: 6.91

Ask: Find the measured pIC50: item `COCCn1c2ccccc2c2cc(-c3nc4cc(C(=O)O)ccc4n3CC3CC3)ccc21` , target or system human EP4 receptor (Homo sapiens (Human)).
Reply: 7.74

Ask: Find the measured pIC50: item `CCn1c2ccccc2c2cc(-c3nc4cc(C(=O)NCCN5CCCC5)ccc4n3CCOC)ccc21` , target or system human EP4 receptor (Homo sapiens (Human)).
Reply: 6.68

----------
Biological target: human EP4 receptor (Homo sapiens (Human))
Test: Test for antagonism of the human EP4 receptor signal (cAMP HTRF)
Assay type: cell-based
Settings: cells expressing hEP4, PGE2 at EC80 (0.4 nM), cAMP TR-FRET; read-out: Antagonism hEP4 IC50
experimental-readout: pIC50
In simple prose, pIC50 is minus the logarithm base ten of a concentration in moles per litre.

Ask: Name the recorded pIC50 for CCn1c2ccccc2c2cc(-c3nc4cc(C(=O)NS(=O)(=O)CCc5cccc(OC)c5)ccc4n3CCOC)ccc21 [Example 69] .
Reply: 6.81

Ask: Name the recorded pIC50 for CCn1c2ccccc2c2cc(-c3nc4cc(C(=O)O)ccc4n3CCOC(F)(F)F)ccc21 [Example 130] .
Reply: 7.84

Ask: Name the recorded pIC50 for CCn1c2ccccc2c2cc(-c3nc4cc(C(=O)O)ccc4n3CCS(C)(=O)=O)ccc21 [Example 136] .
Reply: 6.49

Ask: Name the recorded pIC50 for CCn1c2ccccc2c2cc(-c3nc4cc(C(C)(C)O)ccc4n3CCOC)ccc21 [Example 101] .
Reply: 6.00

Ask: Name the recorded pIC50 for CCn1c2ccc(OC)cc2c2cc(-c3nc4cc(C(=O)O)ccc4n3CCOC)ccc21 [Example 32] .
Reply: 7.56

----------
Biological target: human EP4 receptor (Homo sapiens (Human), UniProt P35408)
Sequence (P35408 whole entry): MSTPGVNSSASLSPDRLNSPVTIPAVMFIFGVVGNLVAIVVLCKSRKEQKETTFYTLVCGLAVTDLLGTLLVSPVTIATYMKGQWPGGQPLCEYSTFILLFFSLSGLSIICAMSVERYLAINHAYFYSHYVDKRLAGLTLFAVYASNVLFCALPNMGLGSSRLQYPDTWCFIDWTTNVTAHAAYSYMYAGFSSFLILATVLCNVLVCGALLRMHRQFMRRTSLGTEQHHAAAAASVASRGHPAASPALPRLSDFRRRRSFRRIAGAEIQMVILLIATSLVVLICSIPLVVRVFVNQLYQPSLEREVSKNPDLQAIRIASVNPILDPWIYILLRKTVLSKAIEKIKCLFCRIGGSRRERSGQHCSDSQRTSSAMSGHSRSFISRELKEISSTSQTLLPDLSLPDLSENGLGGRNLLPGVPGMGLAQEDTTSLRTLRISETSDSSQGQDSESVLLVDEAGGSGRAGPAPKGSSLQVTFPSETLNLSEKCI
Assay: Test for antagonism of the human EP4 receptor signal (cAMP HTRF)
Assay type: cell-based
Conditions: cells expressing hEP4, PGE2 at EC80 (0.4 nM), cAMP TR-FRET; read-out: Antagonism hEP4 IC50
experimental-readout: pIC50
In simple prose, pIC50 is minus the logarithm base ten of a concentration in moles per litre.

compound	experimental-readout	result-value
CCn1c2ccccc2c2cc(-c3nc4cc(C(=O)N5CC(O)C5)ccc4n3CC3CC3)ccc21 [Example 23]	pIC50	6.84
CCn1c2ccccc2c2cc(-c3nc4cc(C(=O)NCC(F)(F)F)ccc4n3CC3CC3)ccc21 [Example 27]	pIC50	6.93
CCn1c2ccccc2c2cc(-c3nc4cc(C(=O)N5CCCC5)ccc4n3CC3CC3)ccc21 [Example 22]	pIC50	7.18
CCn1c2ccccc2c2cc(-c3nc4cc(C(=O)NS(=O)(=O)c5ccccc5OC)ccc4n3CCOC)ccc21 [Example 52]	pIC50	7.44
COCCn1c(-c2ccc3c(c2)c2ccccc2n3CCOC)nc2cc(C(=O)O)ccc21 [Example 98]	pIC50	6.95

Ask: Find the measured pIC50: item CCn1c2ccccc2c2cc(-c3nc4cc(C(=O)NS(=O)(=O)c5ccc(Cl)cc5)ccc4n3CCOC)ccc21 [Example 49] , target or system human EP4 receptor (Homo sapiens (Human), UniProt P35408).
Reply: 7.21

Ask: Find the measured pIC50: item CCn1c2ccccc2c2cc(-c3nc4cc(C(=O)NS(=O)(=O)c5ccccc5)ccc4n3CCOC)ccc21 [Example 50] , target or system human EP4 receptor (Homo sapiens (Human), UniProt P35408).
Reply: 7.47

Ask: Find the measured pIC50: item CCn1c2ccccc2c2cc(-c3nc4cc(C(=O)O)ccc4n3C[C@H](O)COC)ccc21 [Example 135] , target or system human EP4 receptor (Homo sapiens (Human), UniProt P35408).
Reply: 6.47

----------
Listing of entries alongside the reported pIC50.
Target: human EP4 receptor (Homo sapiens (Human), UniProt P35408)
Assay: Test for antagonism of the human EP4 receptor signal (cAMP HTRF)
Format: cell-based
Settings: cells expressing hEP4, PGE2 at EC80 (0.4 nM), cAMP TR-FRET; read-out: Antagonism hEP4 IC50
In simple prose, pIC50 is minus the logarithm base ten of a concentration in moles per litre.

compound	pIC50
CCn1c2ccccc2c2cc(-c3nc4cc(-c5noc(=O)[nH]5)ccc4n3CCOC)ccc21 [Example 46]	7.91
CCn1c2ccccc2c2cc(-c3nc4cc(C(=O)N(C)C)ccc4n3CCOC)ccc21 [Example 83]	6.91
CCn1c2ccccc2c2cc(-c3nc4cc(C(=O)NS(=O)(=O)c5ccccc5OC(F)(F)F)ccc4n3CCOC)ccc21 [Example 54]	7.75
CCn1c2ccccc2c2cc(-c3nc4c(C)c(C(=O)O)ccc4n3CC3CC3)cnc21 [Example 107]	6.36

Ask: Find the measured pIC50: item CCn1c2ccccc2c2cc(-c3nc4cc(C(=O)NS(=O)(=O)CCc5ccc(C(F)(F)F)cc5)ccc4n3CCOC)ccc21 [Example 20] , target or system human EP4 receptor (Homo sapiens (Human), UniProt P35408).
Reply: 6.17

Ask: Find the measured pIC50: item CCn1c2ccccc2c2cc(-c3nc4cc(C(=O)O)ccc4n3C[C@H](O)CO)ccc21 [Example 138] , target or system human EP4 receptor (Homo sapiens (Human), UniProt P35408).
Reply: 6.25

Ask: Find the measured pIC50: item CCn1c2ccccc2c2cc(-c3nc4cc(C(=O)NCCN5CCOCC5)ccc4n3CC3CC3)ccc21 [Example 79] , target or system human EP4 receptor (Homo sapiens (Human), UniProt P35408).
Reply: 6.97

----------
Molecular target: human EP4 receptor (Homo sapiens (Human), UniProt P35408)
Test: Test for antagonism of the human EP4 receptor signal (cAMP HTRF)
Format: cell-based
Details: cells expressing hEP4, PGE2 at EC80 (0.4 nM), cAMP TR-FRET; read-out: Antagonism hEP4 IC50
Could you please mark y for values of IC50 below 100 nM and n for values at or above it?

smiles-repr	label-value
COCCn1c(-c2ccc3c(c2)c2ccccc2n3CC2CCC2)nc2cc(C(=O)O)ccc21	y
CCn1c2ccc(OC)cc2c2cc(-c3nc4cc(C(=O)O)ccc4n3CC3CC3)ccc21	y
CCOC(=O)c1ccc2c(c1)nc(-c1ccc3c(c1)c1ccccc1n3CC)n2C(C)C	n
CCn1c2ccccc2c2cc(-c3nc4cc(C(=O)NC)ccc4n3CC3CC3)ccc21	n

Turning to the following molecule.
Ask: Identify whether the molecule `CCn1c2ccccc2c2cc(-c3nc4cc(C(=O)N5CCC5)ccc4n3CC3CC3)ccc21` records IC50 below 100 nM.
Reply: y

----------
Listing of entries alongside the reported log10(IC50).
Target: human EP4 receptor (Homo sapiens (Human))
Test: Test for antagonism of the human EP4 receptor signal (cAMP HTRF)
Format: cell-based
Details: cells expressing hEP4, PGE2 at EC80 (0.4 nM), cAMP TR-FRET; read-out: Antagonism hEP4 IC50
Record value = log10 of IC50 given in nM.

Examples with answers:
compound	log10(IC50)
CCn1c2ccccc2c2cc(-c3nc4cc(C(=O)O)c(F)cc4n3CCOC)ccc21 [Example 113]	1.77
CCn1c2ccccc2c2cc(-c3nc4cc(C(=O)NS(=O)(=O)Cc5ncccc5C)ccc4n3CCOC)ccc21 [Example 68]	1.56
CCn1c2ccc(Cl)cc2c2cc(-c3nc4c(C)c(C(=O)O)ccc4n3CCOC)ccc21 [Example 142]	0.62
CCn1c2ccncc2c2cc(-c3nc4cc(C(=O)O)ccc4n3CC3CC3)ccc21 [Example 109]	2.25
CCn1c2ccccc2c2cc(-c3nc4cc(C(=O)N5CCOCC5)ccc4n3CCOC)ccc21 [Example 81]	2.09

Ask: Name the recorded log10(IC50) for CCn1c2ccccc2c2cc(-c3nc4cc(C(=O)NS(=O)(=O)c5ccc(OC)cc5)ccc4n3CCOC)ccc21 [Example 19] .
Reply: 1.51
